Data credit: patent US20190359687A1

target_of_assay: T1, human glycophorin A in the red blood cell membrane (human, UniProt P02724 20-150)
T1 construct: whole, on cells; used for intact RBC, isolated RBC membranes and transfected cells; the assay field tells which; also called GPA; hGPA
T1 sequence (looked up): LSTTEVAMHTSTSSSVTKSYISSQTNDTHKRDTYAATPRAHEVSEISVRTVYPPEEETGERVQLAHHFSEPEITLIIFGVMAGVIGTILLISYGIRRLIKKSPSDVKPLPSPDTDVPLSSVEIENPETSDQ
assay_method_text: FACS, RBC Hu01
experimental_readout: fluorescence intensity

* Hu6C12-5 (antibody, V domains shown, IgG format; VH.1e + Vk.1) VH: EVQLVQSGAEVKKPGASVKVSCKASGYTFTTYTIHWVRQAPGQGLEWMGYINPSSDYTRYNPKFKDRVTLTTDTSTSTAYMELRSLRSDDTAVYYCATGTRDYWGQGTTVTVSS VL: DIQLTQSPSFLSASVGDRVTITCSAASSVSYIYWYQQKPGKAPKLLIYSTSTLPSGVPSRFSGSGSGTEFTLTISSLQPEDFATYYCHQRNSFPFTFGQGTKLEIK | 921
* Hu6C12-10 (antibody, V domains shown, IgG format; VH.1a + Vk.1a) VH: EVQLVQSGAEVKKPGASVKVSCKASGYTFTTYTIHWVRQAPGQGLEWMGYINPSSDYTRYNPKFKDRVTMTTDTSTSTAYMELRSLRSDDTAVYYCQRGTRDYWGQGTTVTVSS VL: DIQLTQSPSFLSASVGDRVTITCSAASSVSYIYWYQQKPGKAPKLLIYSTSTLPSGVPSRFSGSGSGTEYTLTISSLQPEDFATYYCHQRNSFPFTFGQGTKLEIK | 3
* Hu6C12-22 (antibody, V domains shown, IgG format; VH.1e + Vk.1b) VH: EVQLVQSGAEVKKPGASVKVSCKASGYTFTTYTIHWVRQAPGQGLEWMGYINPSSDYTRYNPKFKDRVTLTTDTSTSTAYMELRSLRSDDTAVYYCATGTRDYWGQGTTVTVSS VL: DIQLTQSPSFLSASVGDRVTITCSAASSVSYIYWFQQKPGKAPKLLIYSTSTLPSGVPSRFSGSGSGTEYTLTISSLQPEDFATYYCHQRNSFPFTFGQGTKLEIK | 1570
* Hu6C12-15 (antibody, V domains shown, IgG format; VH.1f + Vk.1a) VH: EVQLVQSGAEVKKPGASVKVSCKASGYTFTTYTIHWVRQAPGQGLEWMGYINPSSDYTRYNPKFKDRVTLTTDTSTSTAYMELRSLRSDDTAVYYCQTGTRDYWGQGTTVTVSS VL: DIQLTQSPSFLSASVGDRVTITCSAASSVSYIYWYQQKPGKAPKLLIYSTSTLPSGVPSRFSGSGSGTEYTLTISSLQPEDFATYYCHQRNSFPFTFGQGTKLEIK | 590
* Hu6C12-2 (antibody, V domains shown, IgG format; VH.1b + Vk.1) VH: EVQLVQSGAEVKKPGASVKVSCKASGYTFTTYTIHWVRQAPGQGLEWMGYINPSSDYTRYNPKFKDRVTMTTDTSTSTAYMELRSLRSDDTAVYYCATGTRDYWGQGTTVTVSS VL: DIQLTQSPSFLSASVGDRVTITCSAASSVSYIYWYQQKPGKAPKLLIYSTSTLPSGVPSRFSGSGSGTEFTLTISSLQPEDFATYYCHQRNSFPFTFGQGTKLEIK | 897
